Numbers sourced from patent US20250326769A1.

system.tested: Ba/F3 ETV6-TRKB (Homo sapiens, UniProt Q16620)
Sequence (Q16620 32-822 limits assumed, change not shown): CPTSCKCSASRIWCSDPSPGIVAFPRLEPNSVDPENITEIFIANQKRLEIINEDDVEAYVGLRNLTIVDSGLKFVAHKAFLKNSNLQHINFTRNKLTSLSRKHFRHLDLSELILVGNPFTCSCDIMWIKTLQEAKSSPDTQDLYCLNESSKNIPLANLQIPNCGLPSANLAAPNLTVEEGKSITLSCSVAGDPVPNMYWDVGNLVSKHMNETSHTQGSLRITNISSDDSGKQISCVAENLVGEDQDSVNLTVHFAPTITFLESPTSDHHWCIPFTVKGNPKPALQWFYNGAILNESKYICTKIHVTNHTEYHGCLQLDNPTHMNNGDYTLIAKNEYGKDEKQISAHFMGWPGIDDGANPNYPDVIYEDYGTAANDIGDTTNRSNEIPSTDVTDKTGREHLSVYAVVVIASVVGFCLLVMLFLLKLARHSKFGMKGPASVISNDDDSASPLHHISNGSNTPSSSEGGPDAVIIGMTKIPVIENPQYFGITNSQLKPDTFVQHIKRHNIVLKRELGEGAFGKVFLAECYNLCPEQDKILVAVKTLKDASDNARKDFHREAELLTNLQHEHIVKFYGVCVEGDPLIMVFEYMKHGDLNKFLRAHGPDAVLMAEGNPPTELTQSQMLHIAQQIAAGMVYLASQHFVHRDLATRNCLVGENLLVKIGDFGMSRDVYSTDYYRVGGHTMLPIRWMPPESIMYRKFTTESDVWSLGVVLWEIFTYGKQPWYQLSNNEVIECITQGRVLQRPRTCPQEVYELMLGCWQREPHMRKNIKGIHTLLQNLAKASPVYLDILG
procedure.text: Ba/F3 cell proliferation assay, ETV6-TRKB
Assay type: cell-based
stated.conditions: Ba/F3 stable cells, 72 hours, CellTiter-Glo; read-out: ETV6-TRKB IC50
property.name: IC50

Recorded results for 3 compounds are shown here.
INSERT INTO assay_data (structure_smiles, property_name, recorded_measurement) VALUES
  ('CC(C)n1nc2c(c1C#N)-c1cnc(N)c(c1)O[C@H](C)c1cc(F)ccc1-c1ncccc1C2=O', 'IC50', '50 to 500 nM'),
  ('CSc1nn(CC2CC2)c2c1Cc1cn(C)nc1-c1ccc(F)cc1[C@@H](C)Oc1cc-2cnc1N', 'IC50', '> 500 nM'),
  ('C[C@H]1Oc2cc(cnc2N)-c2c(c(C(=O)N(C)C)nn2C2CCC2)Cc2cccnc2-c2ccc(F)cc21', 'IC50', '50 to 500 nM');

So what does the record say about IC50 for Cc1nc2c(s1)C(=O)c1nn(C)c(C#N)c1-c1cnc(N)c(c1)O[C@H](C)c1cc(F)ccc1-2 ? 50 to 500 nM

So what does the record say about IC50 for CCn1ncc2c1-c1cnc(N)c(c1)O[C@H](C)c1cc(F)ccc1-c1ncccc1C2=O ? > 500 nM
